Biological target: efflux protein (Escherichia coli, UniProt P02980)
Sequence (P02980 whole entry): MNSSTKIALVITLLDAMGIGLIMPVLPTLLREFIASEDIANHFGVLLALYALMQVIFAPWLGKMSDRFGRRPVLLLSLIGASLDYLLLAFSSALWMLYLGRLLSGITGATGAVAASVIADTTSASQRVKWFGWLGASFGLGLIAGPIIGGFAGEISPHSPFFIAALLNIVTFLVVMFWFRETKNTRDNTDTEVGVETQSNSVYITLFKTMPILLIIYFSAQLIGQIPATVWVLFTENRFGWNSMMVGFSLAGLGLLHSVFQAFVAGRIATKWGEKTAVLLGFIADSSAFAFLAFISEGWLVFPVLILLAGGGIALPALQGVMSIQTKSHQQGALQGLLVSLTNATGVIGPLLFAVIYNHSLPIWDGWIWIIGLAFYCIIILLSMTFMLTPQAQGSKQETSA
Assay: everted membrane vesicle assay, blocking activity of 13-S-derivatives
Type: biochemical
Conditions: blocking activity against the efflux protein, everted membrane vesicle assay
I'd appreciate it if you marked entries t when Ki is lower than 0.5 µg/mL and f when it is not.

Examples with answers:
[
  {
    "molecule": "CN(C)C1C(O)=C(C(N)=O)C(=O)C2(O)C(O)=C3C(=O)c4c(O)cccc4C(CSC(C)(C)C)C3C(O)C12 (stereo not drawn)",
    "assay.target": "efflux protein (Escherichia coli, UniProt P02980)",
    "label.class": "t"
  },
  {
    "molecule": "CN(C)C1C(O)=C(C(N)=O)C(=O)C2(O)C(O)=C3C(=O)c4c(O)cccc4C(CSCc4ccc(Cl)cc4)C3C(O)C12 (stereo not drawn)",
    "assay.target": "efflux protein (Escherichia coli, UniProt P02980)",
    "label.class": "f"
  },
  {
    "molecule": "CCCCCCCCCCSCC1c2cccc(O)c2C(=O)C2=C(O)C3(O)C(=O)C(C(N)=O)=C(O)C(N(C)C)C3C(O)C21 (stereo not drawn)",
    "assay.target": "efflux protein (Escherichia coli, UniProt P02980)",
    "label.class": "f"
  }
]

We next turn to a different molecule, shown below.
A record lists Cc1ccc(CSCC2c3cccc(O)c3C(=O)C3=C(O)C4(O)C(=O)C(C(N)=O)=C(O)C(N(C)C)C4C(O)C32)cc1 (stereo not drawn) . Is its Ki below 0.5 µg/mL?
f
